- experiment: LAP4-GFP expression modulators in yeast, confirmation, cell-based, cherry picks, flow cytometry, mother/daughter gates (AID 2271);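 further: ratio of sample to DMSO plate mean so 100% equals DMSO level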
- test.conditions: S. cerevisiae LAP4-GFP strain, 3 h, measured here: daughter cell gate response, at 10 µM, stronger effect = higher value, 100 means same as DMSO control
recorded.metric: GFP response relative to DMSO (%)
Give the value, in units of %, as a plain number.

COc1cccc(-c2nnc(NC(=O)c3ccc(S(=O)(=O)N(CC(C)C)CC(C)C)cc3)o2)c1
97.9
CCOc1ccccc1N1CCN(C(=O)c2cccc(-c3ccc(O)cc3)c2)CC1
95.6
O=S(=O)(c1ccc(C2CCCCC2)cc1)N1CCOCC1
97.5
CCOc1ccc(/C=C/C(=O)c2c(O)cc(C)oc2=O)cc1
113

Note: attention shifts to another entry.
Query: Requested read-out: GFP response relative to DMSO. Entry: CC1=NNC(=O)/C1=C\c1cn(-c2ccccc2)nc1-c1ccccc1
Reply: 164

###

- experiment: RPL19A-GFP modulators, yeast TOR pathway, confirmation, cell-based, S. cerevisiae, flow cytometry, cherry picks, mother/daughter gates (AID 2270)
- test.conditions: S. cerevisiae RPL19A-GFP strain, 3 h, at 10 µM, stronger effect = lower value, 100 = same GFP as DMSO wells
recorded.metric: GFP response vs DMSO (%)
Give the value, in units of %, as a plain number.

Solved entries:
COCCCNC(=O)c1ccc2c3c(onc13)-c1ccccc1C2=O
96.3
Cc1noc(/C=C/c2cccnc2)c1[N+](=O)[O-]
105
Cn1cc([N+](=O)[O-])c(C(=O)Nc2nc(-c3ccc(Cl)cc3)cs2)n1
97.8
O=C(Oc1c(Cl)cc(Cl)c2cccnc12)c1cccc([N+](=O)[O-])c1
106
CCOc1ccc(N2C(=O)CC(SCCN)C2=O)cc1 (configuration not stated)
97.6

Query: Requested read-out: GFP response vs DMSO. Entry: O=C(Oc1c(Cl)cc(Cl)c2cccnc12)c1ccco1
Reply: 103

Query: Same again, this time with Cn1c(N2CCCC2)nc2c1c(=O)n(Cc1ccc(Cl)cc1)c(=O)n2C
Reply: 91.8

Query: Same again, this time with CS(=O)(=O)Nc1cccc(C2=NN(S(C)(=O)=O)C(c3ccc4c(c3)OCO4)C2)c1 (configuration not stated)
Reply: 97.2

Query: Same again, this time with Cc1ccc(S(=O)(=O)N2C3C=CC(C3)C2C(=O)O)cc1 (configuration not stated)
Reply: 96

Query: Same again, this time with CCCn1c(=N)c(C(=O)NC2CCCC2)cc2c(=O)n3cccc(C)c3nc21
Reply: 100

Query: Same again, this time with CCc1ccc(-c2csc(NC(=O)COC(=O)CCc3nc4ccccc4s3)n2)cc1
Reply: 105

###

- system.tested: Beta-adrenergic receptor kinase 1 (Homo sapiens)
- experiment: GRK2 binders displacing RNA aptamer, biochemical, validation, human GRK2, bead flow cytometry (AID 488806)
- test.conditions: bead-bound GRK2, FAM-aptamer displacement, at 10 µM, stronger effect = higher value
Peptide text beside a SMILES is read from it. * marks the point of attachment. Boc = CC(C)(C)OC(=O)*
Measured aptamer binding inhibition by item
Give the value, in units of %, as a plain number.

O=C(c1ccc(F)cc1)[C@@H]1[C@@H](C(=O)c2ccccc2)[C@@]2(C(=O)Nc3ccccc32)[C@H]2c3ccccc3C=CN12
-3
CC(C)CC(NC(=O)C1CCCN1C(=O)OC(C)(C)C)C(=O)NCC(N)=O (stereo not drawn) (Boc-Pro-Leu-Gly-NH2; configuration not given here)
4
CCOc1ccccc1Oc1coc2cc(OCC(=O)O)ccc2c1=O
10
CN1CCc2cccc3c2[C@H]1Cc1ccc(O)c(O)c1-3
4
CCN(CC)CCNc1ccc(CO)c2sc3ccccc3c(=O)c12
-5
NC(=O)OCC(COC(N)=O)c1ccccc1
4

Query: Requested read-out: aptamer binding inhibition. Entry: Cn1c2c(c(=O)[nH]c1=O)C(c1ccc(O)cc1)C1=C(N2)c2ccccc2C1=O (stereo unspecified)
Reply: -2

Value source: PubChem BioAssay
